Source listed as paper PMC4336329.

Molecular target: human ether-à-go-go-related gene (hERG) potassium channel (human, UniProt Q12809);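 note: peak tail current of the secondary pulse compared with the same well before compound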
Sequence (Q12809 whole entry, looked up): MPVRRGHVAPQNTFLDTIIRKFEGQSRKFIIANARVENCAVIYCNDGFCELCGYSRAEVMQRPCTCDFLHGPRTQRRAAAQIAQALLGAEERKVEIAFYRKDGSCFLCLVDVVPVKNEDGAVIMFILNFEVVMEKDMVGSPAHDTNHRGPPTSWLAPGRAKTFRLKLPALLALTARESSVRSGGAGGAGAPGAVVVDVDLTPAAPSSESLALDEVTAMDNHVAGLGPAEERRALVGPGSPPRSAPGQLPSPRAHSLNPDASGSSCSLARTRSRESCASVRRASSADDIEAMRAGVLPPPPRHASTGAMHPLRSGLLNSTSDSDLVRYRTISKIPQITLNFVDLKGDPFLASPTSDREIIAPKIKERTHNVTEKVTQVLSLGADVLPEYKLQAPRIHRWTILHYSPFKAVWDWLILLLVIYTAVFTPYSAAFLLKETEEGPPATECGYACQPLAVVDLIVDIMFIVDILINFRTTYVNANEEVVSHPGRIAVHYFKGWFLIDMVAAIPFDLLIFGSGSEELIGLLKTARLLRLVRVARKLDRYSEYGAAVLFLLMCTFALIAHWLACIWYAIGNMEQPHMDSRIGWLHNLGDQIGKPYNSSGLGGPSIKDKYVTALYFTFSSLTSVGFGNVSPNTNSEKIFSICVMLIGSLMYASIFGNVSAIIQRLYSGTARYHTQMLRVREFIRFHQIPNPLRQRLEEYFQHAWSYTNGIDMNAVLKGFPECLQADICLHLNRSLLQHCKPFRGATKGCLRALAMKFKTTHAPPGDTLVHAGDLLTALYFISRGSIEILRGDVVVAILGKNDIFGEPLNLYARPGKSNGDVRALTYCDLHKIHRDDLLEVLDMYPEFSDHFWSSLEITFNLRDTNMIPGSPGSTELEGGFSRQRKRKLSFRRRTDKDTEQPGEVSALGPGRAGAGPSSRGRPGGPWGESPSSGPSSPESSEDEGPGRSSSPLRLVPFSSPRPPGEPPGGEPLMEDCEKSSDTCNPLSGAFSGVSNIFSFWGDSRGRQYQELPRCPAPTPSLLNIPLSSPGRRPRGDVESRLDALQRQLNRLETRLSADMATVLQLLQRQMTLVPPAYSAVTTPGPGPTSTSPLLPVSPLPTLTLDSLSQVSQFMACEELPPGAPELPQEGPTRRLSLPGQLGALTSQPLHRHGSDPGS
Test: primary screen, population patch clamp on CHO cells stably expressing hERG; higher = less effect of the substance
About 14,000 (4.5%) of roughly 310,000 compounds showed an effect of 50% or more. Effects have a minus sign here. Shown is part of a subset that was picked to be rich in strong results.
readout: hERG current change (%, negative = inhibition) at 10uM (%)
Numbers only, in %.

Worked set:
compound	unitTag	reportedValue
CC(=O)N(CCN(C)C)c1nc2cc3c(cc2s1)OCCO3.Cl	%	10.6
COc1cccc(/C=N/NC(=O)c2cc(-c3cccn3C)n[nH]2)c1	%	-61.1
COCCn1c(SCC(=O)N2CCc3ccccc3C2)nc2ccccc2c1=O	%	-43.8

Each of the following entries comes with a recorded value; kindly state hERG current change (%, negative = inhibition) at 10uM for each.
1. O=C(C[n+]1cc(-c2ccc(Cl)cc2)n2c1CCCCC2)c1ccccc1.[Br-]
2. C=CCn1c(SCC(=O)N2CCc3ccccc3C2)nc2sc(C)cc2c1=O
3. CCn1c(SCC(=O)N2CCCCCC2)nc2ccccc2c1=O
4. COc1ccc2c(c1)CC/C(=C/c1ccco1)C2=O
5. O=C(C[n+]1cc(-c2ccccc2)n2c1CCCCC2)c1ccc(Cl)cc1.[Br-]
6. COc1ccc(C(=O)C[n+]2cc(-c3ccc(OC)cc3)n3c2CCCC3)cc1.[Br-]
7. O=C(CSc1nnc(-c2ccc(S(=O)(=O)N3CCCC3)cc2)o1)NCc1ccco1
8. C(=N\C(/N=C/c1ccco1)c1ccco1)/c1ccco1

### Response
[-12.5, -7.46, -10.4, 10.7, -23.4, -10.1, -7.57, -5.1]

Please go through the list and note hERG current change (%, negative = inhibition) at 10uM for each compound.
1. O=C(CN(C(=O)c1csnn1)c1ccc(F)c(Cl)c1)NCc1ccc(F)cc1
2. COC(=O)c1cc(Cl)nc2ccccc12
3. OC(CN1CCN(Cc2ccccc2)CC1)c1ccccc1 (stereo not drawn)
4. CN(C)S(=O)(=O)c1cccc(NC(=O)COc2ccc3ccccc3c2)c1
5. O=C(C[n+]1cc(-c2ccc(Cl)cc2)n2c1CCC2)N1c2ccccc2Sc2ccccc21.[Cl-]
6. N/C(=N\N=C\c1ccco1)SC1CC(=O)N(c2ccccc2)C1=O (stereo not drawn)
7. O=C(Nc1nccs1)C1CCN(S(=O)(=O)c2ccc(F)cc2)CC1
8. Cn1ccc(NS(=O)(=O)c2cc(Br)ccc2Br)n1

### Response
7.3
-7.89
-30.3
-7.08
-22.1
17.1
2.1
0.158

====

So I've got a bunch of compounds here, and I need their hERG current change (%, negative = inhibition) at 10uM values.
Molecular target: human ether-à-go-go-related gene (hERG) potassium channel (human, UniProt Q12809);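 note: peak tail current of the secondary pulse compared with the same well before compound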
Experiment: primary screen, population patch clamp on CHO cells stably expressing hERG; higher = less effect of the substance
About 14,000 (4.5%) of roughly 310,000 compounds showed an effect of 50% or more. Effects have a minus sign here. The full list was thinned out, with strong results kept by preference.
One number for each entry, in %.

Look over these answered cases.
smilesData	reportedValue
O=C1COc2ccc(NC(=O)N3CCN(c4ccc(F)cc4)CC3)cc2N1	-79.8
O=C(CSc1nnc(-c2ccco2)n1-c1ccccc1)NCc1ccc2c(c1)OCO2	-73.4
C=CCn1c(SCC(=O)NCc2ccc3c(c2)OCO3)nnc1-c1cccnc1	-0.64

Your task in this section: give hERG current change (%, negative = inhibition) at 10uM for each listed record.
1. O=C(CCc1ccccc1)Nc1nccs1
2. O=C(CSCc1ccc([N+](=O)[O-])cc1)N/N=C/c1cccnc1

### Response
1. 14.9
2. -60.2
